- Species: Rattus norvegicus
- EXPERIMENT SUMMARY: DrugMatrix - Regimen: Daily Repeat
- Format: toxicity, organism-based, Sprague-Dawley
- Parameters: regimen Daily Repeat, gender Male, age 6-8 weeks
- TEST CONTEXT: in vivo, po, 0 mg/kg, 72 h, tissue Blood, route oral GAVAGE, dose level Control, time 3 day, vehicle .5 % CMC
Property: MONOCYTE; scope: individual compounds

COMPOUND	MONOCYTE / %
NCC(=O)O	1.67
CC(/C=C1\SC(=S)N(CC(=O)O)C1=O)=C\c1ccccc1	1.33
CCc1cccc2c3c([nH]c12)C(CC)(CC(=O)O)OCC3 (centres undefined)	2.13
COC(=O)c1ccc(O)cc1	0.67
C[C@]12CCC(=O)C=C1CC[C@@H]1[C@@H]2C(=O)C[C@@]2(C)[C@H]1CC[C@]2(O)C(=O)CO	2.13
Brc1ccccc1	1.5
CCC[C@@H]1C[C@@H](C(=O)N[C@@H]([C@H]2O[C@H](SC)[C@H](O)[C@@H](O)[C@H]2O)[C@@H](C)O)N(C)C1	1.17
CCOC(=O)OC(C)OC1=C(C(=O)Nc2ccccn2)N(C)S(=O)(=O)c2ccccc21 (centres undefined)	1.5
CN1C(C(=O)Nc2ccccn2)=C(O)c2ccccc2S1(=O)=O	3.33
CC[C@H]1OC(=O)[C@H](C)[C@@H](O[C@H]2C[C@@](C)(OC)[C@@H](O)[C@H](C)O2)[C@H](C)[C@@H](O[C@@H]2O[C@H](C)C[C@H](N(C)C)[C@H]2O)[C@](C)(O)C[C@@H](C)/C(=N\OCOCCOC)[C@H](C)[C@@H](O)[C@]1(C)O	2.13
CCc1ccc(C(=O)C(C)CN2CCCCC2)cc1 (centres undefined)	2.83
Cc1c(-c2ccccc2)oc2c(C(=O)OCCN3CCCCC3)cccc2c1=O [FLAVOXATE]	3
CC1(C)[C@H]2CC[C@]1(C)C(=O)C2 [(-)-CAMPHOR]	0
CC(C)[C@H](N)C(=O)OCCOCn1cnc2c(=O)[nH]c(N)nc21	1.17
C=C1CC[C@H](O)C/C1=C/C=C1\CCC[C@]2(C)[C@@H]([C@H](C)/C=C/[C@H](C)C(C)C)CC[C@@H]12	0
CN1CCC[C@@H]1CCO[C@](C)(c1ccccc1)c1ccc(Cl)cc1	1.33
COc1c(C)c2c(c(O)c1C/C=C(\C)CCC(=O)OCCN1CCOCC1)C(=O)OC2 [MYCOPHENOLATE MOFETIL]	1.33
O=c1[nH]cc(F)c(=O)[nH]1	0.33
O=C1CCc2cc(OCCCCc3nnnn3C3CCCCC3)ccc2N1	2.14
